Biological target: T1, human IL-11 (AAH12506.1, Pro22-Leu199) (human, UniProt P20809 22-199)
T1 construct: The range Pro22-Leu199 counts on AAH12506.1; The Octet runs say only 'human IL-11'; also called hIL-11
T1 chain: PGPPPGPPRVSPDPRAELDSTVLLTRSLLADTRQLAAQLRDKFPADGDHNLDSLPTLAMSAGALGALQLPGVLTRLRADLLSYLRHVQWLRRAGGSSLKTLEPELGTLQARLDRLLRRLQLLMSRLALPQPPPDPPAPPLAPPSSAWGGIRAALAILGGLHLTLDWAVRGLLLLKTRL
Test: BLI (Octet), antibody captured, human IL-11 in solution
Each record here notes measured Kd.

{"Binder": "hz18A10-VHm1 + hz18A10-VLm15 (antibody, V domains shown, Constant regions not restated for this antibody) VH: EVQLVQSGAEVKKPGASVKVSCKASGYTFTTYNMDWVRQAPGQGLEWMGTIYPGNGDTSYNQKFKGRVTMTRDTSTSTVYMELSSLRSEDTAVYYCARGDLHFLDYWGQGTLVTVSS VL: DIQMTQSPSSLSASVGDRVTITCKASQSVSNDVAWYQQKPGKAPKLLIYRASSRYTGVPSRFSGSGSGTDFTFTISSLQPEDIATYYCQHDYSSPYTFGQGTKLEIK", "Kd [nM]": 0.585}
{"Binder": "hz18A10-VHm13 + hz18A10-VLm19 (antibody, V domains shown, Constant regions not restated for this antibody) VH: EVQLVQSGAEVKKPGASVKVSCKASGYTFTHYEMDWVRQAPGQGLEWMGTIYPGNGDTSYNQKFKGRVTMTRDTSTSTVYMELSSLRSEDTAVYYCARGDLYALDYWGQGTLVTVSS VL: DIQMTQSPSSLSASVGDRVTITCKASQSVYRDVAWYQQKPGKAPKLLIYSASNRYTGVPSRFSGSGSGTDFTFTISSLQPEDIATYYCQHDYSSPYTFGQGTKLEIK", "Kd [nM]": 0.203}
{"Binder": "hz18A10-VHm6 + hz18A10-VLm19 (antibody, V domains shown, Constant regions not restated for this antibody) VH: EVQLVQSGAEVKKPGASVKVSCKASGYTFNHYDMDWVRQAPGQGLEWMGTIYPGNGDTSYNQKFKGRVTMTRDTSTSTVYMELSSLRSEDTAVYYCARGDLYALDYWGQGTLVTVSS VL: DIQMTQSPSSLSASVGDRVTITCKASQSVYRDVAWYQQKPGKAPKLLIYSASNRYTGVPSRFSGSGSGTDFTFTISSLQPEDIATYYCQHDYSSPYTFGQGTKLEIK", "Kd [nM]": 0.213}
